# Tested on: ACHN renal
# TEST_METHOD_NOTES: NCI-60 one-dose screen, 48 h (100 = growth as untreated, 0 = no growth, -100 = all killed)
# TEST_CONDITIONS: 10 µM unless noted
About 83,000 compounds went through this panel and 20% of them were active in at least one assay; those are over-represented in the sample as a whole.
For each entry below, report its growth value.
The reply should be a number in %, with the unit left off.

Ask | Quick check: growth on ACHN renal, item CC1(C)CC[C@]2(C(=O)N3CCOCC3)CC[C@]3(C)C(=CC[C@@H]4[C@@]5(C)C/C(=C/c6ccncc6)C(=O)C(C)(C)[C@@H]5CC[C@]43C)[C@@H]2C1 ?
Reply | 15.6

Ask | Please provide the recorded growth for COc1cc2c3c(n(CCCCNCCCn4c5c(c6cc(OC)c(OC)cc6c4=O)C(=O)c4cc6c(cc4-5)OCO6)c(=O)c2cc1OC)-c1cc2c(cc1C3=O)OCO2 , tested on ACHN renal.
Reply | 95

Ask | What growth appears in the records for this compound with ACHN renal? NS(=O)(=O)c1ccc(N/C=C/C(=O)c2cc3ccccc3oc2=O)cc1
Reply | 99.7

Ask | Quick check: growth on ACHN renal, item CCN(CCO)CC(C)Nc1ccc([N+](=O)[O-])c2sc3ccccc3c(=O)c12 (stereo not drawn) ?
Reply | 11.5

Ask | What reported growth corresponds to Cc1ccc(-c2cc(C(=O)N3N=C(c4ccc(N)cc4)CC3c3ccc(Cl)cc3)c3ccccc3n2)cc1 (stereo not drawn) on ACHN renal?
Reply | 51.7

Ask | growth of Cc1cc(N2CCN(C)CC2)nc(NCc2cc(Nc3ccnc4cc(Cl)ccc34)ccc2F)n1 on ACHN renal?
Reply | -10.6

Ask | growth of O=C(CCCCCCCCC(=O)N/N=C\c1cc(Cl)ccc1O)N/N=C\c1cc(Cl)ccc1O on ACHN renal?
Reply | 9.47

Ask | Recall the recorded growth for C(/C=C/c1ccccc1)=Nc1ccc(CCc2ccc(N=C/C=C/c3ccccc3)cc2)cc1 with ACHN renal and state it.
Reply | 6.67

Taken from PubChem BioAssay (NCI).
